Reference for the values: paper PMC6017481

Here, each record is paired with measured inhibition at 10 µM data.
Target: Aβ1–42 peptide aggregation (Homo sapiens, UniProt P05067)
Construct: Recombinant human HFIP-pretreated Aβ1–42 peptide; purchased Merck Millipore, Darmstadt, Germany
Sequence (P05067 672-713 limits assumed): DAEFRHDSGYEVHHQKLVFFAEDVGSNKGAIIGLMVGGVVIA
Experiment: Thioflavin T-based fluorometric assay of Aβ aggregation
Format: biochemical
Conditions: at 10 μM inhibitor concentration; 1.5 μM Aβ1–42; mean ± SD; read-out: Aβ-Aggr. % Inh.

COc1ccccc1CNCC(O)CCCN1C(=O)c2ccccc2C1=O (stereo not drawn)	< 10%
COc1ccc(CNCC(O)CN2C(=O)c3ccccc3C2=O)cc1 (stereo not drawn)	< 10%
COc1ccccc1CNCC(O)CCCCN1C(=O)c2ccccc2C1=O (stereo not drawn)	< 10%
COc1ccccc1CNCC(O)CN1C(=O)c2ccccc2C1=O (stereo not drawn)	19.9%

Query block: Form entry - test system: Aβ1–42 peptide aggregation (Homo sapiens, UniProt P05067); read-out: inhibition at 10 µM; compound: O=C1c2ccccc2C(=O)N1CC(O)CNCc1ccccc1C(F)(F)F (stereo not drawn)
Result block: < 10%

Query block: Can you handle O=C1c2ccccc2C(=O)N1CC(O)CNCc1cccc(Cl)c1 (stereo not drawn) next?
Result block: < 10%
